Entry source: patent US20260356856A1

target: KRas WT (Homo sapiens, UniProt P01116); construct: Biotinylated KRas (corresponding to amino acids 1-169, produced at Accelegan Inc.); biotin (biotinylated); purchased Accelegan Inc; assay: KRas binding assay, TR-FRET displacement of Cy5 labelled tracer; settings: 60-minute incubation at room temperature, 1% DMSO, pH 7.5
Sequence (P01116 1-169 isoform P01116-2): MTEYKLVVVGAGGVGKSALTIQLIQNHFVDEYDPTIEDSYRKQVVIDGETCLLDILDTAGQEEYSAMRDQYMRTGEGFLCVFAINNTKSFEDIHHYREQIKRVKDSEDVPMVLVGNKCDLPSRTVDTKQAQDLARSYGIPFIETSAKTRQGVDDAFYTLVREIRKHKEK
measure: IC50 (nM)

molecule	numeric.readout
Cc1ccn(C(=O)C2CCCN(c3nc(OC[C@@]45CCCN4C[C@H](F)C5)nc4c(F)c(-c5ccc(F)c6sc(N)c(C#N)c56)c(Cl)cc34)CC2)n1 (stereo partly drawn)	10
CCc1c(F)ccc2cc(O)cc(-c3ncc4c(N(CCCC(=O)n5ccc(C)n5)C5CC5)nc(OC[C@@]56CCCN5C[C@H](F)C6)nc4c3F)c12	52
CCc1c(F)ccc2cc(O)cc(-c3ncc4c(N(C)CCNC(=O)n5cncn5)nc(OC[C@@]56CCCN5C[C@H](F)C6)nc4c3F)c12	30

---

Biological target: KRas WT (Homo sapiens)
Construct: Biotinylated KRas (corresponding to amino acids 1-169, produced at Accelegan Inc.); biotin (biotinylated); purchased Accelegan Inc
Assay: KRas binding assay, TR-FRET displacement of Cy5 labelled tracer
Settings: 60-minute incubation at room temperature, 1% DMSO, pH 7.5
Experimental: This Example illustrates that exemplary compounds of the present invention bind to KRas and are capable of displacing a labeled tracer ligand occupying the KRas binding site. […] The ability of a compound to bind to KRas was measured using a TR-FRET displacement assay. […] After a 60-minute incubation at room temperature, the reaction was measured using a BMG LABTECH CLARIO star Plus via TR-FRET. […]
measure: IC50

molecule	result
CCc1c(F)ccc2cc(O)cc(-c3ncc4c(NC[C@@H]5C[C@@H]5C(=O)n5ccc(C)n5)nc(OC[C@@]56CCCN5C[C@H](F)C6)nc4c3F)c12	34 nM
CCc1c(F)ccc2cc(O)cc(-c3ncc4c(N(CC)CCCC(=O)n5ccc(C)n5)nc(OC[C@@]56CCCN5C[C@H](F)C6)nc4c3F)c12	103 nM
CC(=O)N(C)C(=O)C1CCCN(c2nc(OC[C@@]34CCCN3C[C@H](F)C4)nc3c(F)c(-c4ccc(F)c5sc(N)c(C#N)c45)c(Cl)cc23)CC1 (stereo partly drawn)	14 nM

---

Listed compounds paired with reported log10 of IC50
biological target: KRas WT (Homo sapiens); construct: Biotinylated KRas (corresponding to amino acids 1-169, produced at Accelegan Inc.); biotin (biotinylated); purchased Accelegan Inc; assay: KRas binding assay, TR-FRET displacement of Cy5 labelled tracer; conditions: 60-minute incubation at room temperature, 1% DMSO, pH 7.5
measure: log10 of IC50 (log10 of the value in nM)

compound	log10 of IC50
CCc1c(F)ccc2cc(O)cc(-c3ncc4c(N5CC(C(=O)n6ccc(C)n6)C6(CC6)C5)nc(OC[C@@]56CCCN5C[C@H](F)C6)nc4c3F)c12 (some centres unmarked) [Example 119]	2.60
CCc1c(F)ccc2cc(O)cc(-c3ncc4c(N(C)CCNC(=O)n5ccnn5)nc(OC[C@@]56CCCN5C[C@H](F)C6)nc4c3F)c12 [Example 250]	1.57
CCc1c(F)ccc2cc(O)cc(-c3ncc4c(N5C[C@@H]6[C@H](C5)[C@H]6C(=O)n5ccc(C)n5)nc(OC[C@@]56CCCN5C[C@H](F)C6)nc4c3F)c12 [Example 118]	2.94
CC(=O)N(C)C(=O)[C@@H]1C[C@H]1CNc1nc(OC[C@@]23CCCN2C[C@H](F)C3)nc2c(F)c(-c3ccc(F)c4sc(N)c(C#N)c34)c(Cl)cc12 [Example 238]	1.00
CCc1c(F)ccc2cc(O)cc(-c3ncc4c(N5CC6C(CC(=O)n7ccc(C)n7)C6C5)nc(OC[C@@]56CCCN5C[C@H](F)C6)nc4c3F)c12 (some centres unmarked) [Example 120]	3.08
CC(=O)N(C)C(=O)CCCN(C)c1nc(OC[C@@]23CCCN2C[C@H](F)C3)nc2c(F)c(-c3ccc(F)c4sc(N)c(C#N)c34)c(Cl)cc12 [Example 259]	0.90
CCc1c(F)ccc2cc(O)cc(-c3ncc4c(N5CCN(C(=O)n6ccc(C)n6)C(C(F)F)C5)nc(OC[C@@]56CCCN5C[C@H](F)C6)nc4c3F)c12 (some centres unmarked) [Example 125]	1.92
CCc1c(F)ccc2cc(O)cc(N3CCc4c(nc(OC[C@@]56CCCN5C[C@H](F)C6)nc4N(C)CCCC(=O)n4ccc(C)n4)C3)c12 [Example 194]	2.32
Cn1ccc(COC(=O)C2CCN(c3nc(OC[C@@]45CCCN4C[C@H](F)C5)nc4c(F)c(-c5ccc(F)c6sc(N)c(C#N)c56)c(Cl)cc34)CC2)n1 [Example 245]	0.78
CCN(C(C)=O)C(=O)CCCN(C)c1nc(OC[C@@]23CCCN2C[C@H](F)C3)nc2c(F)c(-c3ccc(F)c4sc(N)c(C#N)c34)c(Cl)cc12 [Example 291]	1.08

---

Item-by-item account of IC50
target: KRas-mediated phosphorylation of ERK in A549 cells (Homo sapiens, UniProt P01116, G12S); construct: pERK HTRF read-out; test: Inhibition of KRas-mediated phosphorylation of ERK (HTRF), A549 cells; format: cell-based; conditions: HTRF pERK, 3 h incubation
Sequence (P01116 1-188 isoform P01116-2 G12S): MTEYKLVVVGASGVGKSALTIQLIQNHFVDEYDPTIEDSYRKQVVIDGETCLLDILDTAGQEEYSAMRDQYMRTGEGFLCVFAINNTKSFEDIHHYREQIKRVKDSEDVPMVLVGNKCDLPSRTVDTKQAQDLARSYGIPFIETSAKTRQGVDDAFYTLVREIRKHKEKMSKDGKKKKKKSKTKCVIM

molecule	value.units	result.qualifier	IC50
CCc1c(F)ccc2cc(O)cc(-c3ncc4c(N5CCC6CC6(C(=O)n6ccc(C)n6)CC5)nc(OC[C@@]56CCCN5C[C@H](F)C6)nc4c3F)c12 (stereo partly shown)	nM	=	210
CC(=O)N(C)C(=O)C1CCN(c2nc(OC[C@@]34CCCN3C[C@H](F)C4)nc3c(F)c(-c4ccc(F)c5sc(N)c(C#N)c45)c(Cl)cc23)CC1 [Example 253]	nM	=	14
N#Cc1c(N)sc2c(F)ccc(-c3c(Cl)cc4c(N5CCN(S(=O)(=O)n6cnnc6)CC5)nc(OC[C@@]56CCCN5C[C@H](F)C6)nc4c3F)c12	nM	=	1360
CCc1c(F)ccc2cc(O)cc(-c3ncc4c(N5CC6CC5CC6C(=O)n5ccc(C)n5)nc(OC[C@@]56CCCN5C[C@H](F)C6)nc4c3F)c12 (stereo partly shown)	nM	>	10000
Cc1ccn(C(=O)CCN(C)c2cc(O[C@@H](C)[C@@H]3CCCN3C)nc(-c3noc([C@]4(C)CCCc5sc(N)c(C#N)c54)n3)n2)n1	nM	=	621
N#Cc1c(N)sc2c(F)ccc(-c3c(Cl)cc4c(N5CCN(S(=O)(=O)n6ccnn6)CC5)nc(OC[C@@]56CCCN5C[C@H](F)C6)nc4c3F)c12	nM	=	806
CCc1c(F)ccc2cc(O)cc(-c3ncc4c(N5CCC(C(=O)N(C)C(=O)C(C)(C)C)CC5)nc(OC[C@@]56CCCN5C[C@H](F)C6)nc4c3F)c12	nM	=	3770
COCC(C)OC(=O)C1CCN(c2nc(OC[C@@]34CCCN3C[C@H](F)C4)nc3c(F)c(-c4ccc(F)c5sc(N)c(C#N)c45)c(Cl)cc23)CC1 (stereo partly shown)	nM	=	775
CN(C(=O)CCCN(C)c1nc(OC[C@@]23CCCN2C[C@H](F)C3)nc2c(F)c(-c3ccc(F)c4sc(N)c(C#N)c34)c(Cl)cc12)C(=O)c1ccn(C)n1	nM	=	27
N#Cc1c(N)sc2c(F)ccc(-c3c(Cl)cc4c(N5CCC(C(=O)Oc6ccccc6)CC5)nc(OC[C@@]56CCCN5C[C@H](F)C6)nc4c3F)c12	nM	=	104
Cc1ccn(C(=O)CCCN(C)c2cc(O[C@@H](C)[C@@H]3CCCN3C)nc(-c3cc([C@]4(C)CCCc5sc(N)c(C#N)c54)sn3)n2)n1	nM	=	140
CCc1c(F)ccc2cc(O)cc(-c3ncc4c(N5C[C@H]6CC(C(=O)n7ccc(C)n7)C[C@@H]6C5)nc(OC[C@@]56CCCN5C[C@H](F)C6)nc4c3F)c12	nM	>	10000
Cc1ccn(C(=O)C2CCCN(c3nc(OC[C@@]45CCCN4C[C@H](F)C5)nc4c(F)c(-c5c(C#N)c(N)cc(C)c5C(F)(F)F)c(Cl)cc34)CC2)n1 (stereo partly shown)	nM	=	100
Cn1ccc(COC(=O)C2CCN(c3nc(OC[C@@]45CCCN4C[C@H](F)C5)nc4c(F)c(-c5ccc(F)c6sc(N)c(C#N)c56)c(Cl)cc34)CC2)n1	nM	=	148
CCc1c(F)ccc2cc(O)cc(-c3ncc4c(N5CCC(C(=O)n6cc(C)cn6)CC5)nc(OC[C@@]56CCCN5C[C@H](F)C6)nc4c3F)c12	nM	=	200
Cc1ccn(C(=O)CCCNc2cc(O[C@@H](C)[C@@H]3CCCN3C)nc(-c3noc([C@]4(C)CCCc5sc(N)c(C#N)c54)n3)n2)n1	nM	=	9
Cc1ccn(C(=O)CCNc2nc(OC[C@@]34CCCN3C[C@H](F)C4)nc3c(F)c(-c4ccc(F)c5sc(N)c(C#N)c45)c(Cl)cc23)n1	nM	=	227
CCc1c(F)ccc2cc(O)cc(-c3ncc4c(N5CCC(C(=O)Oc6ccc(F)c(F)c6)CC5)nc(OC[C@@]56CCCN5C[C@H](F)C6)nc4c3F)c12	nM	>	10000
CN(C(=O)CCCN(C)c1nc(OC[C@@]23CCCN2C[C@H](F)C3)nc2c(F)c(-c3ccc(F)c4sc(N)c(C#N)c34)c(Cl)cc12)C(=O)c1cnn(C)c1	nM	=	92
CCc1c(F)ccc2cc(O)cc(-c3ncc4c(N5CC6CCC(C(=O)n7ccc(C)n7)C6C5)nc(OC[C@@]56CCCN5C[C@H](F)C6)nc4c3F)c12 (stereo partly shown)	nM	=	1580
Cc1ccn(C(=O)C2CCCN(c3nc(OC[C@@]45CCCN4C[C@H](F)C5)nc4c(F)c(-c5csc6ccc(N)nc56)c(Cl)cc34)CC2)n1 (stereo partly shown)	nM	=	242
CCc1c(F)ccc2cc(O)cc(-c3ncc4c(N5CCN(C(=O)n6ccc(C)n6)C(C(F)F)C5)nc(OC[C@@]56CCCN5C[C@H](F)C6)nc4c3F)c12 (stereo partly shown)	nM	=	6810
